- System: Klebsiella pneumoniae JCM 1662
- assay-method-text: microbe, parasite or virus in culture
- Assay type: cell-based
- details: JCM 1662
No end group written: not given here.
measurement-name: MIC Klebsiella pneumoniae

substance="RLKRMRKRLKRKLRLW-NH2 [SRP-17]" measured_on="Klebsiella pneumoniae JCM 1662" result="32 µg/mL"
substance="LIFLHRLKRMRKRLKRKLRL-NH2 [SRP-12]" measured_on="Klebsiella pneumoniae JCM 1662" result="128 µg/mL"
substance="KLIFLHRLKRELRKRLKRKLR-NH2 [SRP-13]" measured_on="Klebsiella pneumoniae JCM 1662" result="32 µg/mL"
substance="RLKRMRKRLKRKLRLWHRKRYK-NH2 [SRP-8]" measured_on="Klebsiella pneumoniae JCM 1662" result="32 µg/mL"
substance="KLIFLRELRRLRKRLKRKLR-NH2 [SRP-16]" measured_on="Klebsiella pneumoniae JCM 1662" result="64 µg/mL"
substance="MLKLIFLHRLKRMRKRLKRKLR-NH2 [SRP-9]" measured_on="Klebsiella pneumoniae JCM 1662" result="64 µg/mL"
substance="GRLKRMGERLKRKIQKWIRW-NH2 [SRP-15]" measured_on="Klebsiella pneumoniae JCM 1662" result="16 µg/mL"
